Catalogue of pIC50 values
Biological target: LCK (Homo sapiens, UniProt P06239)
Sequence (P06239 whole entry): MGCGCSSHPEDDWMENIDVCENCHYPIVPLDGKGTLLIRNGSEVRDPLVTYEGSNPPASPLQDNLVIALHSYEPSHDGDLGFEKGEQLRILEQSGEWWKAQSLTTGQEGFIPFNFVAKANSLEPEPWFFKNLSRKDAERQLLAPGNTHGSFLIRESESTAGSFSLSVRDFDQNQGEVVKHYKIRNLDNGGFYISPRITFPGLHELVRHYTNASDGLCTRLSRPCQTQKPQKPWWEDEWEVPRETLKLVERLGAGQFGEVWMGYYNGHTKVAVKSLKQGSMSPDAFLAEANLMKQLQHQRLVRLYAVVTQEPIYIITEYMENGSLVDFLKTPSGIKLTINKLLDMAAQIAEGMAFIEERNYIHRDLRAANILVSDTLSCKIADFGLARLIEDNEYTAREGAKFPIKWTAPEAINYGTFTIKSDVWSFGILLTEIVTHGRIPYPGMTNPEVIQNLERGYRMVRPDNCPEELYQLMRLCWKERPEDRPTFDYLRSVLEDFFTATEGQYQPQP
Test: Inhibition of a panel of kinases, in vitro HotSpot kinase assay: LCK
Format: biochemical
Details: Table 10, Formula A-I; 1 μM ATP; read-out: LCK (IC50)
pIC50: −log10 of the molar value.
ATTRIBUTE_MEASURED: pIC50

>>> result("C[C@@H]1[C@H](NC(=O)N(C)C)CCCN1c1cnc(C(N)=O)c(Nc2ccc3ncccc3c2)n1")
"6.00 to 7.00"
>>> result("Cc1ccc(C(=O)N[C@@H]2CCCN(c3cnc(C(N)=O)c(Nc4cc(C)ns4)n3)C2)c(F)c1")
"< 5.00"
>>> result("Cc1cc(Nc2nc(N3CCC[C@@H](NC(=O)c4ccncc4)C3)cnc2C(N)=O)sn1")
"5.00 to 6.00"
>>> result("Cc1cc(Nc2nc(N3CCC[C@@H](NC(=O)c4ccc(N5CCCC5)cc4)C3)cnc2C(N)=O)sn1")
"< 5.00"

###

Target: UniProtKB P42680
Sequence (P42680 whole entry): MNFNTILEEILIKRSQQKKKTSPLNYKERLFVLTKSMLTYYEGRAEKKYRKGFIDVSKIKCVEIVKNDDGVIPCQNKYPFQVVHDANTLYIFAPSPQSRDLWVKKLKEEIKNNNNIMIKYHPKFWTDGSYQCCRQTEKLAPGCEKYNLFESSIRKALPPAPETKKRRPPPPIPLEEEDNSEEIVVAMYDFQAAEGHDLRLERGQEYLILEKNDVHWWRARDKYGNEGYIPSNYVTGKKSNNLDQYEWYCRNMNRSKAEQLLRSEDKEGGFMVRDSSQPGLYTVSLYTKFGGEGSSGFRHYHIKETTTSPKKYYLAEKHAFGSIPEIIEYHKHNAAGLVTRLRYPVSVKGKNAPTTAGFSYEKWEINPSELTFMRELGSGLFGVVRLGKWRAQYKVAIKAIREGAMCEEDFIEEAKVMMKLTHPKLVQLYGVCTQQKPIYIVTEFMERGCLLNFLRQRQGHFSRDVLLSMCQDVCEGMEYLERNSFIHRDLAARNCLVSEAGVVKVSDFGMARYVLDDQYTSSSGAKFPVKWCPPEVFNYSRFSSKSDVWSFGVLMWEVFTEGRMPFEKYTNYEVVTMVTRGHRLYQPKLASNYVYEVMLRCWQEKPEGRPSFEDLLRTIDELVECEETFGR
Assay: Inhibition of a panel of kinases, in vitro HotSpot kinase assay: TEC
Format: biochemical
Conditions: D-compounds panel data; 1 μM ATP
pIC50: −log10 of the molar value.
ATTRIBUTE_MEASURED: pIC50

>>> result("C[C@@H]1[C@H](NC(=O)c2ccc(C3CC3)cc2C(F)(F)F)CCCN1c1cnc(C(N)=O)c(Nc2cnn(C)c2)n1 [Example D-25]")
"7.00 to 8.00"
>>> result("Cc1cc(Nc2nc(N3CCCC(c4ncc(-c5ccccc5)[nH]4)C3)cnc2C(N)=O)sn1 [Example D-164]")
"6.00 to 7.00"
>>> result("C[C@@H]1[C@H](NC(=O)c2ccc(C3CC3)cc2)CCCN1c1cnc(C(N)=O)c(Nc2cnn(C3CCN(C(=O)C4CC4)CC3)c2)n1 [Example D-288]")
"≥ 8.00"
>>> result("Cn1cc(Nc2nc(N3CCC(F)(F)[C@@H](NC(=O)c4ccc(C5CC5)cc4)C3)cnc2C(N)=O)cn1 [Example D-193]")
"6.00 to 7.00"
>>> result("C[C@@H]1[C@H](NC(=O)c2cnc(C(C)(C)C)s2)CCCN1c1cnc(C(N)=O)c(Nc2cnn(C)c2)n1 [Example D-239]")
"≥ 8.00"
>>> result("CN1CCN(C(=O)c2ccc(Nc3nc(N[C@H]4CC[C@@H](NC(=O)c5ccc(C6CC6)cc5F)CC4)cnc3C(N)=O)cc2)CC1 [Example D-71]")
"6.00 to 7.00"
>>> result("Cc1cc(Nc2nc(N3CCC[C@@H](c4ncc(-c5ccc(C6CC6)cc5)[nH]4)[C@H]3C)cnc2C(N)=O)sn1 [Example D-186]")
"6.00 to 7.00"

###

Biological target: BTK-WT (Homo sapiens)
Construct: purified from insect cells as a full-length construct containing an N-terminal 6X-His tag; His6 (N); made in house; host or cells: insect cells (baculovirus Sf21 in Method B)
Sequence (Q06187 whole entry): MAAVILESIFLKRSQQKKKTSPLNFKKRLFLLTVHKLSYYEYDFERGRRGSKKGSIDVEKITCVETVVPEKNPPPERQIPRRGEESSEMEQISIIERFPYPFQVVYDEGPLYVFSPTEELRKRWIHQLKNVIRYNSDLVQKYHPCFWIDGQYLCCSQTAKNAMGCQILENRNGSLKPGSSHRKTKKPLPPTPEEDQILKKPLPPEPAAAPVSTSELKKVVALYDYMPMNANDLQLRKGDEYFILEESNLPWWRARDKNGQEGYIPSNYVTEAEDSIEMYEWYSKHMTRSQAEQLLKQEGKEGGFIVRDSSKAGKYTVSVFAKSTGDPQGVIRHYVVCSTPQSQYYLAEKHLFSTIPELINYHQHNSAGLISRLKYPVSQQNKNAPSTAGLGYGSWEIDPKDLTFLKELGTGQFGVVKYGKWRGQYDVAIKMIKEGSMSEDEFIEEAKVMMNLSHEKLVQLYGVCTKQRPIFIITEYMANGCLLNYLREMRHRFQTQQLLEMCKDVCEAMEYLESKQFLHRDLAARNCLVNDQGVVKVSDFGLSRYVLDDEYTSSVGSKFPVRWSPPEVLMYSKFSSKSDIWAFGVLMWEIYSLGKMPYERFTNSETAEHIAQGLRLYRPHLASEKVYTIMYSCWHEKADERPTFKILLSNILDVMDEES
Test: Btk in vitro inhibitory activity (one of Method A TR-FRET, Method B electrophoretic mobility shift, Method C radiometric filter binding)
Type: biochemical
Details: D-compounds panel data; read-out: IC50 BTK-WT
Measured IC50, listed per entry for reference.
ATTRIBUTE_MEASURED: IC50

>>> result("C[C@@H]1[C@H](NC(=O)c2ccc(C3CC3)cc2)CCCN1c1cnc(C(N)=O)c(Nc2ccc(N3CCC4(CC3)COC4)cc2)n1")
"≤ 10 nM"
>>> result("C[C@@H]1[C@H](NC(=O)c2ccc(C3CC3)cc2)CCCN1c1cnc(C(N)=O)c(Nc2cnn(C3CCN(C(=O)C4(C)COC4)CC3)c2)n1")
"≤ 10 nM"
>>> result("C[C@@H]1[C@H](NC(=O)Nc2cccnc2)CCCN1c1cnc(C(N)=O)c(Nc2ccc(C3(C)CCN(C4CCCC4)CC3)cc2)n1")
"≤ 10 nM"
>>> result("C[C@@H]1[C@H](NC(=O)c2ccc(C3CC3)cc2)CCCN1c1cnc(C(N)=O)c(Nc2ccc(N3CCN(CC(F)(F)F)CC3)cc2)n1")
"10 to 100 nM"
>>> result("C[C@@H]1[C@H](NC(=O)c2ccc(C3CC3)cc2F)CCCN1c1cnc(C(N)=O)c(Nc2cc(CN3CCOCC3)ns2)n1")
"≤ 10 nM"
>>> result("C[C@@H]1[C@H](NC(=O)c2ccc(C3CC3)cc2)CCCN1c1cnc(C(N)=O)c(Nc2cc(C3CCN(C4CCCC4)CC3)ns2)n1")
"≤ 10 nM"
>>> result("Cc1cc(Nc2nc(N3C[C@@H](NC(=O)c4ccc(C5CC5)cc4F)CC[C@@H]3C)cnc2C(N)=O)sn1")
"100 to 1000 nM"
>>> result("C[C@@H]1[C@H](NC(=O)c2ccc(C(N)=O)cc2)CCCN1c1cnc(C(N)=O)c(Nc2cnn(C)c2)n1")
"≤ 10 nM"
>>> result("Cn1cc(Nc2nc(N3CC(NC(=O)c4ccc(C5CC5)cc4)CC(F)(F)C3)cnc2C(N)=O)cn1 (stereo in doubt)")
"≤ 10 nM"
>>> result("C[C@@H]1[C@H](NC(=O)c2ccc(C3CC3)nc2)CCCN1c1cnc(C(N)=O)c(Nc2cnn(C)c2)n1")
"≤ 10 nM"
>>> result("C[C@@H]1[C@H](NC(=O)c2ccc(C3CC3)cc2F)CCCN1c1cnc(C(N)=O)c(Nc2ccn(C)n2)n1")
"100 to 1000 nM"
>>> result("Cc1cc(Nc2nc(N3C[C@H](NC(=O)c4ccc(C5CC5)cc4F)CC[C@H]3C)cnc2C(N)=O)sn1")
"100 to 1000 nM"
>>> result("C[C@@H]1[C@H](NC(=O)N(C)C)CCCN1c1cnc(C(N)=O)c(Nc2ccc(OC3CCN(C4CCCC4)CC3)cc2)n1")
"≤ 10 nM"
>>> result("C[C@@H]1CC[C@H](NC(=O)c2ccc(C3CC3)cc2)CN1c1cnc(C(N)=O)c(Nc2ccc(N3CCN(C)CC3)cc2)n1")
"≤ 10 nM"
>>> result("C[C@@H]1[C@H](NC(=O)c2ccc(C3CC3)cc2)CCCN1c1cnc(C(N)=O)c(Nc2ccc(OC3CCN4CCCC4C3)cc2)n1 (some centres unmarked)")
"≤ 10 nM"
>>> result("C[C@@H]1[C@H](NC(=O)c2ccc(C3CC3)cc2)CCCN1c1cnc(C(N)=O)c(Nc2ccc(OC3CCN(C)CC3)cc2)n1")
"≤ 10 nM"
>>> result("C[C@@H]1[C@H](NC(=O)c2ccc(C3CC3)cc2Cl)CCCN1c1cnc(C(N)=O)c(Nc2cnn(C)c2)n1")
"≤ 10 nM"
>>> result("C[C@@H]1[C@H](NC(=O)N(C)C)CCCN1c1cnc(C(N)=O)c(Nc2ccc(CN3CCN(C)CC3)cc2)c1")
"100 to 1000 nM"
>>> result("CN1CCN(c2ccc(Nc3nc(N4CCC[C@@H](n5ccc6cc(C7CC7)ccc6c5=O)C4)cnc3C(N)=O)cc2)CC1")
"≤ 10 nM"
>>> result("Cc1cc(Nc2cc(N3CCC[C@@H](NC(=O)c4ccc(C5CC5)cc4F)[C@H]3C)cnc2C(N)=O)sn1")
"≤ 10 nM"
>>> result("C[C@@H]1[C@H](NC(=O)c2ccc(C3CC3)cc2)CCCN1c1cnc(C(N)=O)c(Nc2ccc(OC3CCN(C4CCCC4)CC3)cc2)n1")
"≤ 10 nM"
>>> result("C[C@@H]1[C@H](NC(=O)c2ccc(C3CC3)cc2F)CCCN1c1cnc(C(N)=O)c(Nc2ccc(CN3CCN(C)CC3)cc2)n1")
"≤ 10 nM"
>>> result("C[C@@H]1[C@H](NC(=O)c2ccc(C(C)(C)C#N)cc2)CCCN1c1cnc(C(N)=O)c(Nc2ccc(OC3CCN(C)CC3)cc2)n1")
"≤ 10 nM"
>>> result("C[C@@H]1[C@H](NC(=O)c2ccc(C(F)(F)F)cn2)CCCN1c1cnc(C(N)=O)c(Nc2cnn(C)c2)n1")
"≤ 10 nM"
>>> result("C[C@@H]1[C@H](NC(=O)c2ccc(C3CC3)cc2)CCCN1c1cnc(C(N)=O)c(Nc2ccc(CN3CCOCC3)cc2)n1")
"≤ 10 nM"
>>> result("C[C@@H]1[C@H](NC(=O)c2ccc(C3CC3)cc2F)CCCN1c1cnc(C(N)=O)c(Nc2cnn(C)c2)c1")
"10 to 100 nM"
